Just for reference, PubChem BioAssay (NCI) is where these values come from.

tested on: 786-0 renal; test: NCI tumour cell line growth inhibition, 48 h
result type: TGI

Measured TGI of COc1cc(C2CC(c3cccc(Nc4ccnc5cc(Cl)ccc45)c3)=NN2c2ccc(Cl)cc2)cc(OC)c1OC (configuration not stated) : 26.2 µM

Notebook: S=C1NC2=C(COc3ccccc32)C(c2ccc(Cl)cc2)N1 (configuration not stated) , TGI read as 34.5 µM

Short answer for `CN(C)CCN1C(=O)c2cccc3cc([N+](=O)[O-])cc(c23)C1=O` : TGI was 8.1 µM

Per the record, `O=S(=O)([O-])c1ccc(N=Cc2ccccc2[O-])cc1.O=S(=O)([O-])c1ccc(N=Cc2ccccc2[O-])cc1.[Co+2]` has TGI of > 100 µM

Briefly, TGI measured for `O=C(CN(C(=O)OC12CC3CC(CC(C3)C1)C2)C(=O)OC12CC3CC(CC(C3)C1)C2)Oc1ccc([N+](=O)[O-])cc1` : > 100 µM

For record BrC(Br)=C1C(=C(Br)Br)C(Br)C1Br (configuration not stated) the listed TGI is 0.882 µM

Per the record, `COc1cc2c(c(OC)c1OC)-c1ccc(O)cc1[C@@H](NC(C)=O)CC2` has TGI of > 100 µM
